Tested on: synthesis of LTB4 in human whole blood
Measurement Description: Human whole blood LTB4 production inhibition assay
Type: cell-based
Condition Parameters: calcimycin stimulated, read-out: hWB LTB4 IC50
Form field: IC50 (one value per entry).
Expressed in nM, but write only the number.

Answered examples (8):
• CNc1ccc(-c2nc(C3(c4ccc(-c5cnc(N)nc5)nc4)CCC3)no2)cn1 = 100
• CN(C)C(=O)Cn1cc(-c2nc(C3(c4ccc(-c5ccc(N)nc5)nc4)CCC3)no2)cn1 = 300
• CN(C)C(=O)Cn1cc(-c2nc(C3(c4ccc(-c5cnc(N)nc5)nc4)CCC3)no2)cn1 = 610
• C[C@@H](O)CNc1ccc(-c2nc(C3(c4ccc(-c5cnc(N)nc5)nc4)CCC3)no2)cn1 = 100
• COC(=O)[C@H]1CNCCN1c1ccc(-c2nc(C3(c4ccc(-c5cnc(N)nc5)nc4)CCC3)no2)cn1 = 75
• C[C@H](O)CNc1ccc(-c2nc(C3(c4ccc(-c5cnc(N)nc5)nc4)CCC3)no2)cn1 = 110
• COC(=O)[C@@H]1CN(c2ccc(-c3nc(C4(c5ccc(-c6cnc(N)nc6)nc5)CCC4)no3)cn2)CCN1 = 86
• Cc1ncccc1-c1nc(C2(c3ccc(-c4cnc(N)nc4)nc3)CCC2)no1 = 1000

Please look up its IC50: Nc1ncc(-c2ccc(C3(c4noc(-c5cocn5)n4)CCC3)cn2)cn1
1000

Need IC50, item COc1ccncc1-c1nc(C2(c3ccc(-c4cnc(N)nc4)nc3)CCC2)no1
1100
